Origin of values: patent US12122761B2

# assayedTarget: human cloned CHRM3 receptor (M3_CHO cells) (Homo sapiens)
# Construct: expressed in transfected cells; host or cells: CHO-K1
# Sequence (P20309 whole entry): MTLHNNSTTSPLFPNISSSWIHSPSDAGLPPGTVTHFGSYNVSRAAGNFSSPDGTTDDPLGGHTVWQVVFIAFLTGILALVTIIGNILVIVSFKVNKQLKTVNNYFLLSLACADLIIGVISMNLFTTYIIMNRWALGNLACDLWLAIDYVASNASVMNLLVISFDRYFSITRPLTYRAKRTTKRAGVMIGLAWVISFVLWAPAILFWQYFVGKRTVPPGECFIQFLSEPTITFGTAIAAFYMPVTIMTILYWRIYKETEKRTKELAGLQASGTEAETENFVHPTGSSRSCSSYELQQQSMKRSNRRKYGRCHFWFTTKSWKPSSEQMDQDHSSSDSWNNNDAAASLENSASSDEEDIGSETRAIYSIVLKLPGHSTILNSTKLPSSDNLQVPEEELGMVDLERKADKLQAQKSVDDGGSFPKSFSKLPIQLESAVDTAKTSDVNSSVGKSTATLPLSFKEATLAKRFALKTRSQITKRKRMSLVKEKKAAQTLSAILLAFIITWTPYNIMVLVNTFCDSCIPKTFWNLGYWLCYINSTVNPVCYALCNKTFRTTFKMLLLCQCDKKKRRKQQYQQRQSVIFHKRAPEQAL
# assayRemarks: CHRM3 Ca++ Flux Assay (agonist mode, FDSS 7000EX)
# Type: cell-based
# conditionSummary: Percent Activity measured to EC100 of Carbachol
endpoint: M3 FDSS PA (%)

- COc1ccccc1C1CCN([C@@H]2CCC3(C2)CN(c2ncns2)C3)CC1 (single isomer, unassigned) [Example 10Q]: 0

I = O=C(N1CC2(CC[C@@H](N3CCC(c4cc(F)ccc4C4CCOCC4)CC3)C2)C1)C1(F)CC1 (single isomer, unassigned) [Example 9K]
II = Cc1nnc(COc2ccccc2C2CCN([C@@H]3CCC4(C3)CN(C(=O)C3(F)CC3)C4)CC2)s1 (single isomer, unassigned)
Q) Between the two listed entries I and II , which has its M3 FDSS PA at the higher number? Respond with the label that goes with your answer.
A) II
